For each entry below, report its N-acyl-derivative in tissue sample, analysis b value.
test-protocol: In vivo formation of NAFB1 and NAHFB1 in rat kidney and liver (HPLC-ESI-MS/MS)
Parameters: unit not given here
details: Liver; treatment FB1 2 mg/kg BW ip, 5 days

Exercise: Quick one: N-acyl-derivative in tissue sample, analysis b of CCCCCCCCCCCCCCCCCCCCCC(=O)NC(C)C(O)CC(O)CCCCC(O)CC(C)CC(OC(=O)CC(CC(=O)O)C(=O)O)C(OC(=O)CC(CC(=O)O)C(=O)O)C(C)CCCC (centres unmarked) [FB1C22:0] ?
Key: 4,6

Exercise: Look up N-acyl-derivative in tissue sample, analysis b for this molecule: CCCCCCCC/C=C\CCCCCCCCCCCCCC(=O)N[C@@H](C)[C@@H](O)C[C@H](O)CCCC[C@@H](O)C[C@H](C)C[C@H](O)[C@H](O)[C@H](C)CCCC [HFB1C24:1]
Key: 0,0

Exercise: Requested field: N-acyl-derivative in tissue sample, analysis b. Item: CCCCCCCCCCCCCCCCCC(=O)NC(C)C(O)CC(O)CCCCC(O)CC(C)CC(OC(=O)CC(CC(=O)O)C(=O)O)C(OC(=O)CC(CC(=O)O)C(=O)O)C(C)CCCC (centres unmarked) [FB1C18:0]
Key: 3,9

Exercise: What measured N-acyl-derivative in tissue sample, analysis b goes with CCCCCCCCCCCCCCCCCC(=O)N[C@@H](C)[C@@H](O)C[C@H](O)CCCC[C@@H](O)C[C@H](C)C[C@H](O)[C@H](O)[C@H](C)CCCC [HFB1C18:0] ?
Key: 0,0

Exercise: Returns the measured N-acyl-derivative in tissue sample, analysis b for the input molecule. Input: CCCCCCCCCCCCCCCCCCCCCCCC(=O)NC(C)C(O)CC(O)CCCCC(O)CC(C)CC(OC(=O)CC(CC(=O)O)C(=O)O)C(OC(=O)CC(CC(=O)O)C(=O)O)C(C)CCCC (centres unmarked) [FB1C24:0]
Key: 17,6

Where do these numbers come from? They come from paper PMC4298654.
